Entries and their measured growth inhibition follow.
assay: P. falciparum blood-stage growth inhibition, late-stage follow-up, M18AAP inhibitor project, cell-based, radiolabel, 3D7, RBCs, Set2 (AID 720736); details: P. falciparum 3D7 in RBCs, 3H-hypoxanthine incorporation, 48 h; run 1; at 10 µM; stronger effect = higher value

Molecule	growth inhibition (%)
COc1ccc(CCCN2CCN(C)CC2)cc1OC	0
COc1ccc(CCNc2ccnc3cc(Cl)ccc23)cc1OC	69
COc1ccc(CCNc2ccncc2)cc1OC	6
COc1ccc(CCNc2cc(C)nc3ccccc23)cc1OC	26
Cc1nc(NCCc2ccc(O)c(O)c2)c2c3c(sc2n1)CCC3	0
COc1ccc(CCNc2c3c(nc4ccc(C)cc24)CCCC3)cc1OC	27
Oc1ccc(CCNc2cccc3ccccc23)cc1O	16
COc1ccc(CCN(C)c2ccnc3c(F)cccc23)cc1OC	5
COc1cccc(CCNc2c3ccccc3nc3ccccc23)c1	100
COc1cc(Br)c(CCNc2c3ccccc3nc3ccccc23)cc1OC	95
Oc1ccc(C2CCN(c3ccnc4ccccc34)CC2)cc1O	76
COc1ccc(CCCNc2c3c(nc4ccccc24)CCCC3)cc1OC	4
CCN(CC)Cc1cc(Nc2ccnc3cc(Cl)ccc23)ccc1O	98
Oc1ccc(CCNc2ccc3ccccc3c2)cc1O	21
CN(CCc1ccc(O)c(O)c1)c1ccnc2c(F)cccc12	3
CN(CCc1ccc(O)c(O)c1)c1ccnc2cc(Cl)ccc12	0
COc1ccc(CCN(C)c2ccnc3cc(Cl)ccc23)cc1OC	97
CN(CCCc1ccc(O)c(O)c1)c1ccnc2ccccc12	0
CCOc1ccc2nccc(N(C)CCc3ccc(OC)c(OC)c3)c2c1	15
Oc1ccc(CCNc2ccnc3ccccc23)cc1O	89
COc1ccc(CCCN(C)c2c3ccccc3nc3ccccc23)cc1OC	17
Oc1cccc(CCNc2ccnc3ccccc23)c1O	97
COc1ccc(CCNc2cncc3ccccc23)cc1OC	65
Oc1ccc(C2CCN(c3ccnc4ccccc34)C2)cc1O (stereo not given)	95
COc1ccc(CCNC(=O)c2cc(C)ccc2N)cc1OC	0

* * *

test: P. falciparum blood-stage growth inhibition, late-stage follow-up, M18AAP inhibitor project, cell-based, radiolabel, 3D7, RBCs, Set2 (AID 720736); settings: P. falciparum 3D7 in RBCs, 3H-hypoxanthine incorporation, 48 h; run 2; at 10 µM; stronger effect = higher value

Smiles Input	growth inhibition [%]
COc1ccc(CCNc2ccncc2)cc1OC	12
NCCNc1c2ccccc2nc2ccccc12	99
Oc1ccc(CCCNc2c3ccccc3nc3ccccc23)cc1O	93
COc1ccc(CCNC2CCN(Cc3ccccc3)CC2)cc1OC	93
Cc1c(OCc2ccccc2)c(=O)ccn1CCNc1c2ccccc2nc2ccccc12	99
O=c1ccn(CCNc2c3ccccc3nc3ccccc23)cc1OCc1ccccc1	84
COc1ccc(CCNc2c3c(nc4ccccc24)CCCC3)cc1OC	55
COc1ccc(CCNc2ccc3ccccc3c2)cc1OC	3
COc1ccc(CCNc2c3ccccc3nc3ccccc23)cc1OC	100
COc1ccc(CCN2CCc3ccccc3C2)cc1OC	3
COc1ccc(CCN2CCN(C)CC2)cc1OC	5
Oc1ccc(CCNc2c3c(nc4ccccc24)CCCC3)cc1O	95

* * *

assay: P. falciparum blood-stage growth inhibition, late-stage follow-up, M18AAP inhibitor project, cell-based, radiolabel, 3D7, RBCs, Set2 (AID 720736); details: P. falciparum 3D7 in RBCs, 3H-hypoxanthine incorporation, 48 h; run 2; at 10 µM; stronger effect = higher value
The source made the active and inactive calls.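 The calls were made as follows: active = growth inhibition of at least 50% in any replicate; inactive = growth inhibition below 50% in every replicate.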
Entries and their measured growth inhibition follow.
Value Type: growth inhibition

Smiles Input	Test Value
Oc1ccc(CCNc2c3ccccc3nc3ccccc23)cc1	95%
COc1ccc(CCN(C)c2ccnc3ccccc23)cc1OC	94%
COc1ccc(CCN(C)c2ccnc3cc(Cl)ccc23)cc1OC	92%
CN1CCN(CCCc2ccc(O)c(O)c2)CC1	0%
COc1cccc(CCNc2c3ccccc3nc3ccccc23)c1	99%
COc1ccc(CCNc2cccc3ccccc23)cc1OC	20% (inactive)
Oc1ccc(CCNC2CCN(Cc3ccccc3)CC2)cc1O	95%
Oc1ccc(CCNc2cccc3ccccc23)cc1O	22% (inactive)
O=C(O)CCCNc1c2ccccc2nc2ccccc12	15% (inactive)
Oc1ccc(CCNc2ccc3ccccc3c2)cc1O	18% (inactive)
COc1ccc(CCCNc2c3ccccc3nc3ccccc23)cc1OC	95%

* * *

experiment: P. falciparum blood-stage growth inhibition, late-stage follow-up, M18AAP inhibitor project, cell-based, radiolabel, 3D7, RBCs, Set2 (AID 720736); details: P. falciparum 3D7 in RBCs, 3H-hypoxanthine incorporation, 48 h; run 1; at 10 µM; stronger effect = higher value
Entries and their measured growth inhibition follow.

Compound	growth inhibition [%]
COc1ccc(CCCNc2c3ccccc3nc3ccccc23)cc1OC	88
CN1CCN(CCc2ccc(O)c(O)c2)CC1	4
CN(CCCc1ccc(O)c(O)c1)c1c2ccccc2nc2ccccc12	21
CC(C)(CNc1ccnc2ccccc12)c1ccc(O)c(O)c1	35
CCOc1ccc2nccc(NCCc3ccc(OC)c(OC)c3)c2c1	72
COc1ccc(CCNc2ncnc3ccccc23)cc1OC	5
COc1ccc(CCN(C)c2ccncc2)cc1OC	0
COc1ccc(CCN(C)c2ccnc3ccccc23)cc1OC	95
COc1ccc(C2CCN(c3ccnc4ccccc34)CC2)cc1OC	1
CN(CCc1ccc(O)c(O)c1)c1ccnc2ccccc12	91
Oc1ccc(CCNc2ccnc3c(F)cccc23)cc1O	0
Oc1ccc(CCN2CCc3ccccc3C2)cc1O	52
COc1ccc(CNc2c3ccccc3nc3ccccc23)cc1OC	100
COc1ccc(CCNC(c2ccccc2)c2ccccc2)cc1OC	0
CN(CCc1ccc(O)c(O)c1)c1ccncc1	3
CC(Cc1ccc(O)c(O)c1)Nc1ccnc2ccccc12 (centres undefined)	19
COc1ccc(CCNc2c3c(nc4ccccc24)CCCC3)cc1OC	38
COc1ccc(CCN2CCc3ccccc3C2)cc1OC	0
O=C(O)CCCNc1c2ccccc2nc2ccccc12	0
CN(CCc1ccc(O)c(O)c1)c1ncnc2ccccc12	1
COc1ccc(CCN(C)c2ncnc3ccccc23)cc1OC	3
COc1cc(Br)c(CCNc2ccnc3ccccc23)cc1OC	90
COc1cc(Br)c(CCNc2c3c(nc4ccccc24)CCCC3)cc1OC	96
O=c1ccn(CCNc2c3ccccc3nc3ccccc23)cc1OCc1ccccc1	92

* * *

assay: P. falciparum blood-stage growth inhibition, late-stage follow-up, M18AAP inhibitor project, cell-based, radiolabel, 3D7, RBCs, Set2 (AID 720736); settings: P. falciparum 3D7 in RBCs, 3H-hypoxanthine incorporation, 48 h; run 2; at 10 µM; stronger effect = higher value
Threshold rule: growth inhibition greater than or equal to 60% is Yes; below that, No.

Smiles Input	Category
Oc1ccc(CCNc2ccnc3ccccc23)cc1O	Yes
COc1ccc(CNc2c3ccccc3nc3ccccc23)cc1OC	Yes
Oc1ccc(CCN2CCc3ccccc3C2)cc1O	Yes
O=C(O)CCCCNc1c2ccccc2nc2ccccc12	No
Oc1ccc(CCNC(c2ccccc2)c2ccccc2)cc1O	No
COc1ccc(CCNC2CCN(C)CC2)cc1OC	No
Oc1ccc(CCNc2cncc3ccccc23)cc1O	No

* * *

experiment: P. falciparum blood-stage growth inhibition, late-stage follow-up, M18AAP inhibitor project, cell-based, radiolabel, 3D7, RBCs, Set2 (AID 720736); conditions: P. falciparum 3D7 in RBCs, 3H-hypoxanthine incorporation, 48 h; run 2; at 10 µM
Calls of active or inactive are those of the source.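 The calls were made as follows: active = growth inhibition of at least 50% in any replicate; inactive = growth inhibition below 50% in every replicate.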
Outcomes: y = active, n = inactive

Smiles Input	Category
COc1ccc(CCN(C)c2ccncc2)cc1OC	n
COc1ccc(CCN(C)c2c3ccccc3nc3ccccc23)cc1OC	y
CN(CCc1ccc(O)c(O)c1)c1ccncc1	n
CN(CCc1ccc(O)c(O)c1)c1ccnc2ccccc12	y
COc1ccc(CCNc2c3ccccc3nc3ccccc23)cc1	y
COc1ccc(CCNc2cncc3ccccc23)cc1OC	y
CN1CCN(CCc2ccc(O)c(O)c2)CC1	n

* * *

test: P. falciparum blood-stage growth inhibition, late-stage follow-up, M18AAP inhibitor project, cell-based, radiolabel, 3D7, RBCs, Set2 (AID 720736); settings: P. falciparum 3D7 in RBCs, 3H-hypoxanthine incorporation, 48 h; run 1; at 10 µM; stronger effect = higher value
Entries and their measured growth inhibition follow.
Value Type: growth inhibition (%)

Smiles Input	Value Type	Test Value
COc1ccc(CCNc2ccc3ccccc3c2)cc1OC	growth inhibition	0
CN1CCN(CCCc2ccc(O)c(O)c2)CC1	growth inhibition	5
COc1ccc(CCNc2ccnc3c(F)cccc23)cc1OC	growth inhibition	26
Oc1ccc(CCNC(c2ccccc2)c2ccccc2)cc1O	growth inhibition	47
O=C(O)CCCCNc1c2ccccc2nc2ccccc12	growth inhibition	27
Oc1ccc(CCCNc2c3c(nc4ccccc24)CCCC3)cc1O	growth inhibition	12
CCN(CCc1ccc(O)c(O)c1)c1c2ccccc2nc2ccccc12	growth inhibition	20
COc1ccc(CCNc2c3ccccc3nc3ccccc23)cc1OC	growth inhibition	98
NCCNc1c2ccccc2nc2ccccc12	growth inhibition	100
Cc1cc(N(C)CCc2ccc(O)c(O)c2)c2ccccc2n1	growth inhibition	6
CN(CCc1ccc(O)c(O)c1)c1c2ccccc2nc2ccccc12	growth inhibition	5
Oc1ccc(CCNc2cncc3ccccc23)cc1O	growth inhibition	38
